// values below are reported pKi
measuredTarget: Carbonic anhydrase 9 (Homo sapiens)
protocolText: Inhibition of recombinant human carbonic anhydrase 9 preincubated with enzyme for 15 mins by phenol red dye based stopped flow CO2 hydration assay
pKi: −log10 of the molar value.
assayEndpoint: pKi

1. O=C1c2ccc([N+](=O)[O-])cc2C(=O)C1(O)O ... 4.53
2. COc1cccc2c1C(=O)C(O)(O)C2=O ... 4.47
3. COc1ccc(C(C)C)c2c1C(=O)C(O)(O)C2=O ... 4.27
4. O=C1c2ccc(Br)cc2C(=O)C1(O)O ... 5.55
5. COc1ccc(OC)c2c1C(=O)C(O)(O)C2=O ... 4.17
6. O=C1c2ccc(F)cc2C(=O)C1(O)O ... 4.41
7. O=C1c2c(Br)c(Br)c(Br)c(Br)c2C(=O)C1(O)O ... 4.33
8. COc1ccc(CNC(=O)CCl)c2c1C(=O)C(O)(O)C2=O ... 5.08
9. O=C1c2ccc(O)cc2C(=O)C1(O)O ... 4.56
10. COc1cc2c(cc1OC)C(=O)C(O)(O)C2=O ... 4.52
11. O=C1c2cccc(O)c2C(=O)C1(O)O ... 4.77
12. O=C1c2cccc([N+](=O)[O-])c2C(=O)C1(O)O ... 4.51
13. COc1ccc2c(c1)C(=O)C(O)(O)C2=O ... 4.87

###

measuredTarget: Carbonic anhydrase 7 (Homo sapiens, UniProt P43166)
Sequence (P43166 whole entry): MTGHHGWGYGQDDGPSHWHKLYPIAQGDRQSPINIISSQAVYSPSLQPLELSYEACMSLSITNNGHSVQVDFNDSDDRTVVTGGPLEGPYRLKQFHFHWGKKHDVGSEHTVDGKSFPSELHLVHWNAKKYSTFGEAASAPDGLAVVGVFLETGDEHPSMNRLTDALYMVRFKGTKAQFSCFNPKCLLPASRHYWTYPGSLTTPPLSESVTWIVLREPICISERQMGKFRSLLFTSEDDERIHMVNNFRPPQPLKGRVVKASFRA
protocolText: Inhibition of recombinant human carbonic anhydrase 7 preincubated with enzyme for 15 mins by phenol red dye based stopped flow CO2 hydration assay
assayEndpoint: Ki (nM)

1. O=C1c2ccccc2C(=O)C1(O)O ... 74

###

measuredTarget: Carbonic anhydrase 9 (Homo sapiens, UniProt Q16790)
protocolText: Inhibition of recombinant human carbonic anhydrase 9 preincubated with enzyme for 15 mins by phenol red dye based stopped flow CO2 hydration assay
assayEndpoint: Ki (µM)

1) Cc1cccc2c1C(=O)C(O)(O)C2=O ... 51.4
2) O=C1c2ccccc2C(=O)C1(O)O ... 2.37
3) Cc1ccc2c(c1)C(=O)C(O)(O)C2=O ... 16.8
4) CC(C)Oc1cccc2c1C(=O)C(O)(O)C2=O ... 1.34
5) O=C1c2cc(Br)cc(Br)c2C(=O)C1(O)O ... 2.81
6) O=C1c2cccc(Br)c2C(=O)C1(O)O ... 61.2
7) O=C1c2cccc(F)c2C(=O)C1(O)O ... 44.3

###

measuredTarget: Carbonic anhydrase 4 (Homo sapiens)
Sequence (P22748 whole entry): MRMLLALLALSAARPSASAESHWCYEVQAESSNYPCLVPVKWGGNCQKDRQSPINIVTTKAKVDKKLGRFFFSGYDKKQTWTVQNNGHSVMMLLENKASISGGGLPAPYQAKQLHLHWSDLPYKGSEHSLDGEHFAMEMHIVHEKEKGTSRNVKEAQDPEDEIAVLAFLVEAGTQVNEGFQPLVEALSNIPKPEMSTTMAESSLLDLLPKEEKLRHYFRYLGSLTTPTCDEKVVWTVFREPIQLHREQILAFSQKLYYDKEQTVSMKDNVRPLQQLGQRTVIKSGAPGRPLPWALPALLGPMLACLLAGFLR
protocolText: Inhibition of recombinant human carbonic anhydrase 4 preincubated with enzyme for 15 mins by phenol red dye based stopped flow CO2 hydration assay
pKi: −log10 of the molar value.
assayEndpoint: pKi

1. O=C1c2cccc(Br)c2C(=O)C1(O)O ... < 4.00
2. O=C1c2ccc(F)cc2C(=O)C1(O)O ... < 4.00
3. O=C1c2ccc([N+](=O)[O-])cc2C(=O)C1(O)O ... < 4.00
4. O=C1c2ccc(O)cc2C(=O)C1(O)O ... < 4.00
5. O=C1c2cc(Br)cc(Br)c2C(=O)C1(O)O ... < 4.00
6. O=C1c2cccc(F)c2C(=O)C1(O)O ... < 4.00
7. COc1ccc2c(c1)C(=O)C(O)(O)C2=O ... 4.13
8. COc1ccc(OC)c2c1C(=O)C(O)(O)C2=O ... < 4.00
9. O=C1c2cccc(O)c2C(=O)C1(O)O ... < 4.00
10. COc1ccc(C(C)C)c2c1C(=O)C(O)(O)C2=O ... < 4.00
11. CC(C)Oc1cccc2c1C(=O)C(O)(O)C2=O ... < 4.00
12. Cc1ccc2c(c1)C(=O)C(O)(O)C2=O ... 4.07
13. COc1cc2c(cc1OC)C(=O)C(O)(O)C2=O ... < 4.00
14. COc1ccc(CNC(=O)CCl)c2c1C(=O)C(O)(O)C2=O ... < 4.00
15. O=C1c2c(Br)c(Br)c(Br)c(Br)c2C(=O)C1(O)O ... 4.40
16. O=C1c2ccccc2C(=O)C1(O)O ... < 4.00
17. COc1cccc2c1C(=O)C(O)(O)C2=O ... < 4.00
18. O=C1c2ccc(Br)cc2C(=O)C1(O)O ... 4.15
19. Cc1cccc2c1C(=O)C(O)(O)C2=O ... < 4.00
20. O=C1c2cccc([N+](=O)[O-])c2C(=O)C1(O)O ... < 4.00
